test system: PC-3; test: Cytotoxicity against human PC3 cells after 48 hrs by MTT assay; format: functional, cell-based; details: PC-3, 48 h, in the assay text read “WST-8 assay” for “MTT assay”
Attribute measured: pIC50
// returns pIC50 (minus log10 of molar concentration), number only

Ask | // pIC50 lookup, key: "Cn1nc(-c2ccccc2)cc1C(=O)N[C@H](Cc1ccc2ccccc2c1)C(=O)O"
Reply | 4.70

Ask | What pIC50 value was documented for this molecule, "COC(=O)[C@H](CCC(=O)N1CCOCC1)NC(=O)/C=C/c1ccc2ccccc2c1" ?
Reply | 4.24

Ask | Item "CC(=O)OCOC(=O)[C@H](CCC(=O)N1CCOCC1)NC(=O)/C=C/c1ccc2ccccc2c1" has what recorded pIC50?
Reply | 4.36
